tested on: HIV-1Laï; assay: microbe, parasite or virus in culture; assay type: cell-based; conditions: 24 h infection; read-out: EC50
pEC50: −log10 of the molar value.
Below, each of the molecules is paired with its reported pEC50 value.
measuredEndpoint: pEC50

molecule="CC1Oc2cc3c(-c4c(O)cc(O)c5c(O)c6c(cc45)OC(C)C(C)C6=O)c(O)cc(O)c3c(O)c2C(=O)C1C (stereo not drawn)" measuredendpoint=pEC50 censoringqualifier=< measuredvalue=5.30
molecule=S=c1[nH]c2ccccc2nc1NCc1ccccc1 measuredendpoint=pEC50 censoringqualifier== measuredvalue=5.63
molecule=CCOC(=O)N1CCc2cc(OC)c(OC)c3c2c1cc1cc(OC)c(OC)cc13 measuredendpoint=pEC50 censoringqualifier== measuredvalue=5.99

====

molecular target: IN-GCN2 interaction (6xHis-IN / GST-GCN2) (UniProt P04585+Q9P2K8); assay: biochemical; format: binding, HIV-1 IN; human GCN2; settings: read-out: IC50, inhibition of IN-GCN2 interaction; SAR study, fresh dilutions from powder; at least three independent experiments
Sequence (Q9P2K8 192-1024, other chains not shown): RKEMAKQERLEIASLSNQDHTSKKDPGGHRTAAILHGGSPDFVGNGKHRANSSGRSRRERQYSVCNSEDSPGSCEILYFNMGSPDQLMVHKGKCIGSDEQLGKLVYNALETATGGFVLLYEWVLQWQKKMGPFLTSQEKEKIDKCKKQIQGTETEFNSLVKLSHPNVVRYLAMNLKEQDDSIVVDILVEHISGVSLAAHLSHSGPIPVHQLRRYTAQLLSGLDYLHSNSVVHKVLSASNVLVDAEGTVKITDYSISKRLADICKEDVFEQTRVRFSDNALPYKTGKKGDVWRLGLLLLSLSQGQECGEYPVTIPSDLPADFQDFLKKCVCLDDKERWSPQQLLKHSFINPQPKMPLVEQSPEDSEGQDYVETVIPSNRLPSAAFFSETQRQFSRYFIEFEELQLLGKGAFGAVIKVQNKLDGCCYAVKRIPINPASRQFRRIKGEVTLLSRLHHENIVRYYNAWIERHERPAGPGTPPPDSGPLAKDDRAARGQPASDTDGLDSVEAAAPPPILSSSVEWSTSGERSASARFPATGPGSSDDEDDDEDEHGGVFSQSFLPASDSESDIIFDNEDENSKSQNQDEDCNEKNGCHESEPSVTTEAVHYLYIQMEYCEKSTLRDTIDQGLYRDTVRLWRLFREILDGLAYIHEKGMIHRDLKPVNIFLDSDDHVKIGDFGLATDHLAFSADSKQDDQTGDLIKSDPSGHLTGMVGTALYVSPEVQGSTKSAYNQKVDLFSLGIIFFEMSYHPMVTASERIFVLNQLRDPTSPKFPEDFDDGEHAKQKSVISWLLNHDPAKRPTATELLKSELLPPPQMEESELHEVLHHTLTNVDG
measuredEndpoint: IC50 (µM)

compound="CN(C)CCCCNc1ccc(NCCCCN(C)C)c2c1C(=O)c1c(O)ccc(O)c1C2=O [Compound 2j]" measuredvalue=11.4

====

target: IN-GCN2 interaction (6xHis-IN / GST-GCN2) (UniProt P04585+Q9P2K8); test: biochemical; assay type: binding, HIV-1 IN; human GCN2; conditions: screen, single dose 100 µM, single replicate; residual AlphaLISA signal normalized to DMSO control
Listed molecules paired with reported IN-GCN2 interaction (%)
measuredEndpoint: IN-GCN2 interaction (%)

molecule="CC(C)(O)[C@@H]1[C@H]2OC(=O)[C@@H]1[C@]1(O)C[C@H]3O[C@]34C(=O)O[C@H]2[C@]14C [NSC129536]" measuredendpoint="IN-GCN2 interaction (%)" measuredvalue=112.62%
molecule="C=C1C(=O)C2=CC1CCC(=O)C1(C)CCC(OC(C)=O)C(C)(C)C1CC2O (centres unmarked) [NSC302979]" measuredendpoint="IN-GCN2 interaction (%)" measuredvalue=105.64%
molecule="CC(O)C1/C=C/C=C/C(=O)OC2CC3OC4C5OC5(C)C(O)CC4(COC(=O)C(O)C(C)CCO1)C2(C)C31CO1 (centres unmarked) [NSC327993]" measuredendpoint="IN-GCN2 interaction (%)" measuredvalue=115.91%
molecule="COC(=O)c1ccc(O)c2nc3c(C=O)c(O)cc(O)c3nc12 [NSC106995]" measuredendpoint="IN-GCN2 interaction (%)" measuredvalue=28.53%
molecule="C/C=C(/C)C(=O)O[C@H]1CCN2CC=C(COC(=O)[C@@](O)([C@H](C)OC)C(C)(C)O)[C@H]12 [NSC30625]" measuredendpoint="IN-GCN2 interaction (%)" measuredvalue=106.60%
molecule="O=c1ccc2nc3ccc(O)cc3oc-2c1 [NSC12097]" measuredendpoint="IN-GCN2 interaction (%)" measuredvalue=169.88%
molecule="CO[C@H]1[C@H](O)[C@@H](O)[C@H](n2c3c(Cl)cccc3c3c4c(c5c6cccc(Cl)c6[nH]c5c32)C(=O)NC4=O)O[C@@H]1CO [NSC359079]" measuredendpoint="IN-GCN2 interaction (%)" measuredvalue=55.24%
molecule="CCCn1cc2c3c(cccc31)[C@H]1C[C@@H](C)CN(C)[C@@H]1C2.O=C(O)C(O)C(O)C(=O)O [NSC332294]" measuredendpoint="IN-GCN2 interaction (%)" measuredvalue=41.41%

====

target: IN-GCN2 interaction (6xHis-IN / GST-GCN2) (UniProt P04585+Q9P2K8); experiment: biochemical; type: binding, HIV-1 IN; human GCN2; conditions: screen, single dose 100 µM, single replicate; residual AlphaLISA signal normalized to DMSO control
measuredEndpoint: IN-GCN2 interaction (%)

compound="CC[C@H]1OC(=O)[C@H](C)[C@@H](OC2CC(C)(OC)C(O)C(C)O2)[C@H](C)[C@@H](OC2OC(C)CC(N(C)C)C2OC(=O)CCC2CCCC2)[C@](C)(O)C[C@@H](C)C(=O)[C@H](C)[C@@H](O)[C@]1(C)O (stereo partly drawn)" measuredvalue=43.14
compound=COc1cc2c(cc1O)C[C@H]1c3c(c(OC)c4c(c3-2)OCO4)CCN1C measuredvalue=39.12
compound=C[C@]12CC[C@@H]3c4ccc(O)cc4CC[C@H]3[C@@H]1CCC2=O measuredvalue=98.84

====

target: IN-GCN2 interaction (6xHis-IN / GST-GCN2) (UniProt P04585+Q9P2K8); test: biochemical; format: binding, HIV-1 IN; human GCN2; conditions: screen, single dose 100 µM, single replicate; residual AlphaLISA signal normalized to DMSO control
So basically: is IN-GCN2 interaction (%) under 90%? Then True. Not under? Then False.

molecule=COc1ccc(O)c2c(=O)c3c(OC)cc4c(c3oc12)[C@@H]1C=CO[C@@H]1O4 group=True
molecule=C=C1C(=O)[C@]23[C@H](O)[C@H]1CC[C@H]2[C@@]12CO[C@]3(O)[C@@H](O)[C@@H]1C(C)(C)CC[C@@H]2O group=False
molecule=CC1(C)C[C@]23[C@@H]4COC(=O)[C@H]2CC[C@H]1[C@@H]3CC4=O group=False
molecule="C=C1C(=O)C23C(O)C1CCC2C12CCCC(C)(COC(C)=O)C1C(O)C3(O)OC2 (centres unmarked)" group=False

====

biological target: IN-GCN2 interaction (6xHis-IN / GST-GCN2) (UniProt P04585+Q9P2K8); experiment: biochemical; type: binding, HIV-1 IN; human GCN2; details: IC50, inhibition of IN-GCN2 interaction, plated compounds of the screen, dose-response 100 µM to 46 nM (Figure 1B), n = 9
pIC50: −log10 of the molar value.
Classification field: y = pIC50 at or over 5; n = pIC50 under 5.

compound=COc1cc2c(cc3c4c(cc5c(c42)OCO5)CCN3C)c(OC)c1OC group=n
compound="CCCCC1CCCCCCc2[nH]c(C=C3N=C(c4ccc[nH]4)C=C3OC)cc21 (centres unmarked)" group=y
compound="CC(=O)OC(C)C1C2=C(C(=O)CC1(C)O)C(=O)c1c(ccc(-c3ccc4c(c3O)C(=O)C3=C(C4=O)C(C(C)OC(C)=O)C(C)(O)CC3=O)c1O)C2=O (centres unmarked)" group=n
compound=COc1cc2c3c(cc4ccccc4c3c1O)N(C)CC2 group=y
compound="CC1Oc2cc3c(-c4c(O)cc(O)c5c(O)c6c(cc45)OC(C)C(C)C6=O)c(O)cc(O)c3c(O)c2C(=O)C1C (centres unmarked)" group=y

====

experiment: Cytotoxicity (CellTiter 96 AQueous); assay type: cell-based; conditions: human
measuredEndpoint: CC50 at 24 h (nM)

molecule="COc1cccc2c1C(=O)c1c(O)c3c(c(O)c1C2=O)CC(O)(C(=O)CO)CC3OC1CC(N(C)C)C(O)C(C)O1 (centres unmarked) [Compound 1r]" measuredendpoint="CC50 at 24 h" censoringqualifier== measuredvalue=225
molecule="CCOC(OCC)C(=O)OCC(=O)C1(O)Cc2c(O)c3c(c(O)c2C(OC2CC(N)C(O)C(C)O2)C1)C(=O)c1c(OC)cccc1C3=O (centres unmarked) [Compound 1i]" measuredendpoint="CC50 at 24 h" censoringqualifier=> measuredvalue=5000
molecule="COc1cccc2c1C(=O)c1c(O)c3c(c(O)c1C2=O)CC(O)(C(C)=O)CC3OC1CC(N(C)C)C(O)C(C)O1 (centres unmarked) [Compound 1o]" measuredendpoint="CC50 at 24 h" censoringqualifier== measuredvalue=256
molecule="O=C1c2c(O)ccc(O)c2C(=O)c2c(NCCOCCO)ccc(NCCOCCO)c21 [Compound 2g]" measuredendpoint="CC50 at 24 h" censoringqualifier=> measuredvalue=5000
molecule="COc1cc2c(c(OC)c1OC)CC1c3c(cc4c(c3-2)OCO4)CCN1C (centres unmarked) [Compound 3c]" measuredendpoint="CC50 at 24 h" censoringqualifier=> measuredvalue=5000

====

Entries and their measured CC50 at 24 h follow.
experiment: Cytotoxicity (CellTiter 96 AQueous); assay type: cell-based; conditions: human; 24 h; read-out: CC50
measuredEndpoint: CC50 at 24 h

compound="CC1Oc2cc3c(-c4c(O)cc(O)c5c(O)c6c(cc45)OC(C)C(C)C6=O)c(O)cc(O)c3c(O)c2C(=O)C1C (stereo not drawn) [NSC345647, chaetochromin]" measuredvalue="> 5 µM"
compound="COc1cc(OC)c2c(O)c3c(c(-c4ccc5cc6c(c(O)c5c4O)C(=O)CC(C)(O)C6)c2c1)CC(C)OC3C (stereo not drawn) [Compound 2b, Karwinskia toxin T-544]" measuredvalue="> 5 µM"
compound="CCCCCC1=C/C(=C/c2[nH]c(-c3ccc[nH]3)cc2OC)N=C1C [NSC47147, prodigiosin]" measuredvalue="1.96 µM"
